Target: mouse ADAMTS7 (Mus musculus, UniProt Q68SA9)
Construct: Full-length mouse Adamts7 1-1857 (Uniprot Q68SA9, WT or E373Q catalytic mutant); expressed in transfected cells; host or cells: Human Coronary Artery Smooth Muscle Cells (HCA-SMC, Lonza), adenovirus 50 MOI
Sequence (Q68SA9 221-1657): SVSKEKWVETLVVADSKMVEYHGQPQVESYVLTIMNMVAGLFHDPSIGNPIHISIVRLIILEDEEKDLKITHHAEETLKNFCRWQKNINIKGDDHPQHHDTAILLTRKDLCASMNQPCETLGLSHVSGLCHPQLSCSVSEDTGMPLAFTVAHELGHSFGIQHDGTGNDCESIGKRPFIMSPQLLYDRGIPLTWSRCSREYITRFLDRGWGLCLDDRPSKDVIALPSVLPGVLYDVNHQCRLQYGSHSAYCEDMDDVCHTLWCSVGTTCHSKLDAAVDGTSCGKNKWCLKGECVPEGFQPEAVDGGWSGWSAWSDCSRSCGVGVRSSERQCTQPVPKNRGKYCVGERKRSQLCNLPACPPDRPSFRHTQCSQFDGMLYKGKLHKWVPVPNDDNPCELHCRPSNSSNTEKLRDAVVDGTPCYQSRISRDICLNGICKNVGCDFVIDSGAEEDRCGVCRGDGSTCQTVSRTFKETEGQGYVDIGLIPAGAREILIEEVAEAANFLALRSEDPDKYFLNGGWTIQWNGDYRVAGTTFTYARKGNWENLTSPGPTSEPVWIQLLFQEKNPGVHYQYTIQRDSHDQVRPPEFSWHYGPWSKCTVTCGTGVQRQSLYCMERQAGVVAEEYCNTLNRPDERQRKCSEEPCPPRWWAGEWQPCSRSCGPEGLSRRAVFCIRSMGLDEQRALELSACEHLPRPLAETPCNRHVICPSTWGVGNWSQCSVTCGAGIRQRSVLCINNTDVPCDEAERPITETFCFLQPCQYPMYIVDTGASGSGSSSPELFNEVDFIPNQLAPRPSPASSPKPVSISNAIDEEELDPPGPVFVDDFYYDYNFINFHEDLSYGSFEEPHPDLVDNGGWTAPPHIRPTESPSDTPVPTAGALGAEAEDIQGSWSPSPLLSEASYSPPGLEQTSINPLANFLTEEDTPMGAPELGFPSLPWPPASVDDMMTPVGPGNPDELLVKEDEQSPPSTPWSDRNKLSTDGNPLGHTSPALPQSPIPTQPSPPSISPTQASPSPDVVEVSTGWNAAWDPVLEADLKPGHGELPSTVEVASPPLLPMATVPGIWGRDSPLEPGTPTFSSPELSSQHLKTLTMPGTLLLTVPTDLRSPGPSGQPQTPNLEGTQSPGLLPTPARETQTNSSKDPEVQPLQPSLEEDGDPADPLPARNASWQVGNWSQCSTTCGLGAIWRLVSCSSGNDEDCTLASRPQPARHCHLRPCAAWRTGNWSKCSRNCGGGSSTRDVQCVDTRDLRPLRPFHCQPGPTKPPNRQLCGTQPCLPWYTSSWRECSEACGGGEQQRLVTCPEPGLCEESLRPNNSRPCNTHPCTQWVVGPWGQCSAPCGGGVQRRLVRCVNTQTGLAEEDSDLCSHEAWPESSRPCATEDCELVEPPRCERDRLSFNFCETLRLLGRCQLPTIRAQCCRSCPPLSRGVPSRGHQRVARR
Test: TMT10 TAILS N-terminomics, HUVEC experiment (process replicates, trypsin/AspN digest)
Format: cell-based, human
Settings: HUVEC TAILS HC; log fold change of N-terminal peptide, Ad-mADAMTS7 WT over Luc
Square brackets hold non-standard residues; d marks the D form. Ends that are not written are not given here. Met(O) = CS(=O)CC[C@H](N)C(=O)O
Kindly apply the following: TRUE if logFC.mWT.over.Luc is less than 2, FALSE in every other case.

Check if logFC.mWT.over.Luc falls below 2 for FN1_1805 (LIGTQSTAIPAPT; listed as Homo sapiens) .
TRUE

Check if logFC.mWT.over.Luc falls below 2 for LOXL2_37 (FQQPAPEYHQPQAPANVAKIQLR; listed as Homo sapiens) .
FALSE

Check if logFC.mWT.over.Luc falls below 2 for MAP4_816 (VASTGPSSR; listed as Homo sapiens) .
FALSE

Check if logFC.mWT.over.Luc falls below 2 for LTBP3_205 (HAAFLVPLGPGQISA; listed as Homo sapiens) .
FALSE

Check if logFC.mWT.over.Luc falls below 2 for AEBP1_37 (FLEGFLSELEPEPR; listed as Homo sapiens) .
FALSE

Check if logFC.mWT.over.Luc falls below 2 for FN1_1143 (LTPGVEYVYTIQVLR; listed as Homo sapiens) .
FALSE

Check if logFC.mWT.over.Luc falls below 2 for FN1_293 (VYQPQPHPQPPPYGHCVT; listed as Homo sapiens) .
TRUE

Check if logFC.mWT.over.Luc falls below 2 for PZP_578 (HAHLQVAAAPQSLCALR; listed as Homo sapiens) .
FALSE

Check if logFC.mWT.over.Luc falls below 2 for FN1_40 (QSPVAVSQSKPGCYDNGKHYQINQQWER; listed as Homo sapiens) .
FALSE

Check if logFC.mWT.over.Luc falls below 2 for LOX_124 (WFQAGYSTSR; listed as Homo sapiens) .
FALSE

Check if logFC.mWT.over.Luc falls below 2 for LTBP2_129 (QQQPAPR; listed as Homo sapiens) .
FALSE

Check if logFC.mWT.over.Luc falls below 2 for LTBP2_253 (GEGTLAR; listed as Homo sapiens) .
FALSE

Check if logFC.mWT.over.Luc falls below 2 for LTBP2_250 (SAAGEGTLAR; listed as Homo sapiens) .
TRUE

Check if logFC.mWT.over.Luc falls below 2 for CLU_267 (FQHPPTEFIR; listed as Homo sapiens) .
TRUE

Check if logFC.mWT.over.Luc falls below 2 for UQCRH_76 (HGSPNNSERAMRAVGE[Met(O)]CKGPGAAR; listed as Homo sapiens) .
TRUE

Check if logFC.mWT.over.Luc falls below 2 for FN1_1743 (WESPQGQVSR; listed as Homo sapiens) .
FALSE

Check if logFC.mWT.over.Luc falls below 2 for ZYX_244 (PVSLANTQPR; listed as Homo sapiens) .
TRUE

Check if logFC.mWT.over.Luc falls below 2 for BICD1_280 (NNDDKMNGHIHGPLVKLNGDYR; listed as Homo sapiens) .
TRUE

Check if logFC.mWT.over.Luc falls below 2 for CTGF_173 (TVVGPALAAYR; listed as Homo sapiens) .
FALSE

Check if logFC.mWT.over.Luc falls below 2 for FN1_607 (SSSGPVEVFIT; listed as Homo sapiens) .
FALSE

Check if logFC.mWT.over.Luc falls below 2 for ASMT_321 (LSSAGFR; listed as Homo sapiens) .
FALSE

Check if logFC.mWT.over.Luc falls below 2 for MCFD2_55 (HLEGVINKPEA; listed as Homo sapiens) .
TRUE

Check if logFC.mWT.over.Luc falls below 2 for NUCB1_317 (FLASTQR; listed as Homo sapiens) .
FALSE

Check if logFC.mWT.over.Luc falls below 2 for SRGN_59 (LLPGESNKIPR; listed as Homo sapiens) .
TRUE

Check if logFC.mWT.over.Luc falls below 2 for CTGF_174 (VVGPALAAYR; listed as Homo sapiens) .
FALSE

Check if logFC.mWT.over.Luc falls below 2 for LTBP2_79 (VAGLQPVER; listed as Homo sapiens) .
TRUE

Check if logFC.mWT.over.Luc falls below 2 for LOX_125 (FQAGYSTSR; listed as Homo sapiens) .
FALSE

Check if logFC.mWT.over.Luc falls below 2 for FN1_1144 (TPGVEYVYTIQVLR; listed as Homo sapiens) .
TRUE

Check if logFC.mWT.over.Luc falls below 2 for NID2_291 (HSSVPLGR; listed as Homo sapiens) .
FALSE

Check if logFC.mWT.over.Luc falls below 2 for LTBP2_502 (LVENSVETRPPPWLPASPGHSLW; listed as Homo sapiens) .
FALSE

Check if logFC.mWT.over.Luc falls below 2 for LTBP3_208 (FLVPLGPGQISA; listed as Homo sapiens) .
TRUE

Check if logFC.mWT.over.Luc falls below 2 for SERBP1_56 (QAAAQTNSNAAGKQLR; listed as Homo sapiens) .
TRUE

Check if logFC.mWT.over.Luc falls below 2 for HSPG2_2331 (ANLAYPAGSTQPIR; listed as Homo sapiens) .
TRUE

Check if logFC.mWT.over.Luc falls below 2 for NUCB1_389 (LQQAVLHMEQR; listed as Homo sapiens) .
TRUE

Check if logFC.mWT.over.Luc falls below 2 for FN1_886 (NQESTPVVIQQETTGTPR; listed as Homo sapiens) .
TRUE

Check if logFC.mWT.over.Luc falls below 2 for SPOCK1_27 (LAGGAGPNHGNFL; listed as Homo sapiens) .
TRUE

Check if logFC.mWT.over.Luc falls below 2 for EWSR1_87 (YSQPVQGYGTGAY; listed as Homo sapiens) .
TRUE

Check if logFC.mWT.over.Luc falls below 2 for FBN1_29 (LEAGNVKETR; listed as Homo sapiens) .
FALSE

Check if logFC.mWT.over.Luc falls below 2 for EFEMP1_124 (AVAGPEMQTGR; listed as Homo sapiens) .
FALSE

Check if logFC.mWT.over.Luc falls below 2 for COL18A1_1505 (LQPPVVQLHDSNPYPR; listed as Homo sapiens) .
FALSE

Check if logFC.mWT.over.Luc falls below 2 for ECM1_108 (QEAVPLQK; listed as Homo sapiens) .
FALSE
